Test system: CD8+ T cells
Assay: In vitro T-cell priming immunogenicity assay (aAPC with pMHC and anti-CD28, multimer staining)
Type: cell-based, human
Settings: HLA-A*02 restricted peptides; percentage of positive wells and donors (among evaluable)
Description: In order to obtain information regarding the immunogenicity of the TUMAPs of the present invention, the inventors performed investigations using an in vitro T-cell priming assay based on repeated stimulations of CD8+ T cells with artificial antigen presenting cells (aAPCs) loaded with peptide/MHC complexes and anti-CD28 antibody. […]
measurement.name: Wells positive [%]

The cases that follow already have their Wells positive [%] on record.
{"substance": "9 (FLLDLDPLL; listed as Homo sapiens) [compound 9]", "tested.on": "CD8+ T cells", "Wells positive [%]": "“++” (20% - 49% = ++)"}
{"substance": "73 (YLGEEYPEV; listed as Homo sapiens) [compound 73]", "tested.on": "CD8+ T cells", "Wells positive [%]": "“+” (<20% = +)"}
{"substance": "12 (GLLLLVPLL; listed as Homo sapiens) [compound 12]", "tested.on": "CD8+ T cells", "Wells positive [%]": "“+++” (50% - 69% = +++)"}
{"substance": "27 (FLNQESFDL; listed as Homo sapiens) [compound 27]", "tested.on": "CD8+ T cells", "Wells positive [%]": "“+” (<20% = +)"}
{"substance": "254 (FLYSETWNI; listed as Homo sapiens) [compound 254]", "tested.on": "CD8+ T cells", "Wells positive [%]": "“+” (<20% = +)"}
{"substance": "17 (VIIPLLSSV; listed as Homo sapiens) [compound 17]", "tested.on": "CD8+ T cells", "Wells positive [%]": "“++” (20% - 49% = ++)"}
{"substance": "260 (RLDEAFDFV; listed as Homo sapiens) [compound 260]", "tested.on": "CD8+ T cells", "Wells positive [%]": "“+” (<20% = +)"}
{"substance": "62 (ALAPYLDLL; listed as Homo sapiens) [compound 62]", "tested.on": "CD8+ T cells", "Wells positive [%]": "“++” (20% - 49% = ++)"}
{"substance": "42 (YLQDLVERA; listed as Homo sapiens) [compound 42]", "tested.on": "CD8+ T cells", "Wells positive [%]": "“+++” (50% - 69% = +++)"}
{"substance": "5 (VLQGLTFTL; listed as Homo sapiens) [compound 5]", "tested.on": "CD8+ T cells", "Wells positive [%]": "“+++” (50% - 69% = +++)"}

# input for lookup
For the substance 29 (ILSDVTQGL; listed as Homo sapiens) [compound 29] , give its reported Wells positive [%].
“+” (<20% = +)

The origin of these recorded values is patent US10702592B2.
